- Study Target: H4 neuroglioma cell line stably expressing APP with the KM-NL Swedish mutation (H4-APPsw); soluble Amyloid Beta 1-40 (Aβ 1-40) (Homo sapiens (Human), UniProt P56817)
- Sequence (P56817 46-501 limits assumed, change not shown): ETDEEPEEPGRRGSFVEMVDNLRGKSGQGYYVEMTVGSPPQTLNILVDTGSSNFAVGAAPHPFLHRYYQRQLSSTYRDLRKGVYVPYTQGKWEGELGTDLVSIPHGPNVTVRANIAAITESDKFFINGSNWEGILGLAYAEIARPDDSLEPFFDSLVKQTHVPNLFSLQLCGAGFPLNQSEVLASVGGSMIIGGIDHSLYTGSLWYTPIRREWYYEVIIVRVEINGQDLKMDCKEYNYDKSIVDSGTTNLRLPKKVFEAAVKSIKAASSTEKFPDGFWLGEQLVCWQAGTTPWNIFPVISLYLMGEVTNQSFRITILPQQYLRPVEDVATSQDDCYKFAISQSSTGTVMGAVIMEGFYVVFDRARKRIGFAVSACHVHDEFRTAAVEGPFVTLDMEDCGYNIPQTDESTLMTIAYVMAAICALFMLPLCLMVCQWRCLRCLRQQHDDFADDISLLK
- Experimental Details: BACE cell assay: soluble Aβ 1-40 in culture media of H4-APPsw cells (AlphaLISA/ELISA)
- Stated Conditions: in vitro cell activity; H4-APPsw cells treated overnight, secreted Aβ 1-40 in culture media
pIC50: −log10 of the molar value.
As shown below, each of these compounds has a reported pIC50 value.

What value of pIC50 has been recorded for this entry: CO[C@H]1CC2(Cc3ccc(-c4cccc(C#N)c4)cc3C23N=C(N)N(C)O3)C[C@H]1OC (some centres unmarked) > 5.30

Next up: CN1OC2(N=C1N)c1cc(-c3cccc(C#N)c3)ccc1CC21CCC(F)(F)CC1 (centres unmarked) > 5.30

Next up: COC1CCC2(CC1)Cc1ccc(-c3cc(C)cc(C)c3)cc1C21N=C(N)N(C)O1 (centres unmarked) > 6.30

Next up: CO[C@H]1CC[C@]2(CC1)Cc1ccc(-c3cccc(C#N)c3)cc1C21CC(=O)N(C)C(N)=N1 (some centres unmarked) > 7.00

Next up: COC1CCC2(CC1)Cc1ccc(-c3cccc(C#N)c3)cc1C21N=C(N)N(C)O1 (centres unmarked) > 7.00

Next up: CN1C(=O)C2(N=C1N)c1cc(-c3cccc(C#N)c3)ccc1CC21CCc2ccccc2CC1 (centres unmarked) > 6.30

Next up: COC1CCC2(CC1)Cc1ccc(-c3cc(F)cc(Cl)c3)cc1C21CC(=O)N(C)C(N)=N1 (centres unmarked) > 7.00

Next up: CN1OC2(N=C1N)c1cc(-c3cccc(C#N)c3)ccc1CC21CCCc2ccccc2C1 (centres unmarked) > 5.00

Next up: COC1CCC2(CC1)Cc1ccc(-c3cc(F)cc(Cl)c3)cc1C21N=C(N)N(C)O1 (centres unmarked) > 7.00

Next up: CN1OC2(N=C1N)c1cc(Br)ccc1CC21CCc2ccccc2CC1 (centres unmarked) > 5.30

---

- Study Target: H4 neuroglioma cell line stably expressing APP with the KM-NL Swedish mutation (H4-APPsw); soluble Amyloid Beta 1-40 (Aβ 1-40) (Homo sapiens (Human), UniProt P56817)
- Experimental Details: BACE cell assay: soluble Aβ 1-40 in culture media of H4-APPsw cells (AlphaLISA/ELISA)
- Type: cell-based
- Stated Conditions: in vitro cell activity; H4-APPsw cells treated overnight, secreted Aβ 1-40 in culture media
pIC50: −log10 of the molar value.
Reported Metric: pIC50

Below, 3 molecules whose answers are already recorded.
[[record]]
molecule = "CN1OC2(N=C1N)c1cc(-c3cccc(C(F)(F)F)c3)ccc1CC21CCc2ccccc2CC1 (stereo not shown)"
result = "> 5.00"

[[record]]
molecule = "COC1CCC2(CC1)Cc1ccc(C#CC3CC3)cc1C21N=C(N)N(C)O1 (stereo not shown)"
result = "> 7.00"

[[record]]
molecule = "CN1OC2(N=C1N)c1ccccc1CC21CCc2ccccc2CC1 (stereo not shown)"
result = "> 6.00"


Read the next record carefully.
What value of pIC50 has been recorded for this entry: CCO[C@H]1CC[C@]2(CC1)Cc1ccc(-c3cccc(C#N)c3)cc1C21N=C(N)N(C)O1 (stereo partly shown) > 6.30

---

- Study Target: truncated human beta-secretase (residues 1-458, His6-tagged at the C-terminus) (Homo sapiens (Human), UniProt P56817)
- Sequence (P56817 22-458): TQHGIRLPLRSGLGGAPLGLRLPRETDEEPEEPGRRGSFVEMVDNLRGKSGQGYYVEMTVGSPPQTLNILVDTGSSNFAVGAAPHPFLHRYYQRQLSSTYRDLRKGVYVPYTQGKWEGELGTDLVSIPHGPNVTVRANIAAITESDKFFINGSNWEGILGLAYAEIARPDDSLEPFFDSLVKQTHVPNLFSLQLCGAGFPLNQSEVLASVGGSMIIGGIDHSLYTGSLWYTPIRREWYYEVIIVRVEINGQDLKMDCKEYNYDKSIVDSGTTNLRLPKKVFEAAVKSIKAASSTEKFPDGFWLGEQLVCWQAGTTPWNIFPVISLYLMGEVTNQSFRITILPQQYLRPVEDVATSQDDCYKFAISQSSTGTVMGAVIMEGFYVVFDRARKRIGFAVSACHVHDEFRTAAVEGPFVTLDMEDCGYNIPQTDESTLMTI
- Experimental Details: BACE enzyme assay (fluorescence quench assay, Example 434A)
- Format: biochemical
- Stated Conditions: footnote a: protocols described in Example 434A; read-out: IC50
Reported Metric: pIC50
When answering, recall that pIC50 equals minus log10 of the concentration in mol/L, and write that number alone.

[[record]]
compound = "CN1OC2(N=C1N)c1cc(-c3cccc(C#N)c3)ccc1CC21CCC(F)(F)CC1 (centres unmarked)"
result_number = 6.72

[[record]]
compound = "CN1C(=O)C2(N=C1N)c1cc(C#CC3CC3)ccc1CC21CCC(O)CC1 (centres unmarked) [Compound 150]"
result_number = 8.52

[[record]]
compound = "COC1CCC2(CC1)Cc1ccc(C#CC3CC3)cc1C21N=C(N)NC1=O (centres unmarked)"
result_number = 7.53

[[record]]
compound = "CO[C@H]1CC[C@]2(CC1)Cc1c(F)cccc1C21N=C(N)N(C)C1=O (some centres unmarked)"
result_number = 6.31


What value of pIC50 has been recorded for this entry: COC1CCC2(CC1)Cc1ccc(C#CC(C)(C)C)cc1C21N=C(N)N(C)O1 (centres unmarked) 7.61

Next up: COC1CCC2(CC1)Oc1ccc(-c3cccc(C#N)c3)cc1C21N=C(N)N(C)O1 (centres unmarked) 5.75

Next up: CO[C@H]1CC2(Cc3ccc(-c4cccc(C#N)c4)cc3C23N=C(N)N(C)O3)C[C@H]1OC (some centres unmarked) [Compound 62] 5.39

Next up: CN1OC2(N=C1N)c1cc(-c3cccc(C#N)c3)ccc1CC21CCCc2ccccc2C1 (centres unmarked) 6.53

Next up: Cc1onc2c1CC1(CC2)Cc2ccc(-c3cccnc3)cc2C12N=C(N)N(C)O2 (centres unmarked) 7.23

Next up: COC1CCC2(CC1)Cc1ccc(C#Cc3ccccc3)cc1C21N=C(N)N(C)O1 (centres unmarked) 7.09

Next up: CN1OC2(CC3(CCOCC3)c3ccc(-c4cccc(C#N)c4)cc32)N=C1N (centres unmarked) 5.33

Next up: Cc1onc2c1CC1(CC2)Cc2ccc(C#CC3CC3)cc2C12N=C(N)N(C)O2 (centres unmarked) 7.78

Next up: COC1CCC2(CC1)Cc1ccc(C#CC3CC3)cc1[C@]21N=C(N)N(C)C1=O (some centres unmarked) 8.66

Next up: COC1CCC2(CC1)Cc1ccc(C#CC3CC3)cc1[C@@]21N=C(N)N(C)C1=O (some centres unmarked) 6.16

From: patent US8633212B2
